Attribution: patent US20220282217A1

SYSTEM_TESTED: HLA-B07.02 (Homo sapiens, UniProt P01889)
Sequence (P01889 25-362): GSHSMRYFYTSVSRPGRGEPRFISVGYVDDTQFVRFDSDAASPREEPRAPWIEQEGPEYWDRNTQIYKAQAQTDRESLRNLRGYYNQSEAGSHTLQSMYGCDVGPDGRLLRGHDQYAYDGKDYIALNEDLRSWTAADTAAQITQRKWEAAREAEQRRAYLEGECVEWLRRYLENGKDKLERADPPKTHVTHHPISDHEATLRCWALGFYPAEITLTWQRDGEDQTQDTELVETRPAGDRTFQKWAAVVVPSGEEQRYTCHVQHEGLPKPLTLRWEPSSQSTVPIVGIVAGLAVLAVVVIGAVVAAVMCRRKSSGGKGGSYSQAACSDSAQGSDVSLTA
Sequence (P61769 21-119 partner): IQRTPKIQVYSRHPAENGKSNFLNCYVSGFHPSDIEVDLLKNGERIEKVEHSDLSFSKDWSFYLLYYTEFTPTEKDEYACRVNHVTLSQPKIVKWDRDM
TEST_SUMMARY: Class I MHC peptide binding affinity (displacement of radiolabeled reference peptide)
EXPERIMENTAL_SETUP: Allele B07.02; read-out: Observed Affinity (IC50; (nM))
Where a SMILES comes first, the peptide text is derived from it.
MEASURED_PARAMETER: IC50
Output should be the measured figure followed by the unit it is expressed in.

Reported HLA-B07.02 (Homo sapiens, UniProt P01889) IC50 for item C[C@H](NC(=O)[C@H](C)NC(=O)[C@H](CCCNC(=N)N)NC(=O)[C@@H]1CCCN1C(=O)[C@@H]1CCCN1C(=O)[C@H](CCCNC(=N)N)NC(=O)[C@@H]1CCCN1C(=O)[C@@H]1CCCN1C(=O)CN)C(=O)N[C@@H](CS)C(=O)O (H-GPPRPPRAAC-OH; N-terminus and C-terminus assumed) was 48.6 nM
